The measured values listed here are drawn from patent US20240165282A1.

# TARGET_OR_SYSTEM: human cloned somatostatin receptor 5 (human) (UniProt P35346)
# Sequence (P35346 whole entry): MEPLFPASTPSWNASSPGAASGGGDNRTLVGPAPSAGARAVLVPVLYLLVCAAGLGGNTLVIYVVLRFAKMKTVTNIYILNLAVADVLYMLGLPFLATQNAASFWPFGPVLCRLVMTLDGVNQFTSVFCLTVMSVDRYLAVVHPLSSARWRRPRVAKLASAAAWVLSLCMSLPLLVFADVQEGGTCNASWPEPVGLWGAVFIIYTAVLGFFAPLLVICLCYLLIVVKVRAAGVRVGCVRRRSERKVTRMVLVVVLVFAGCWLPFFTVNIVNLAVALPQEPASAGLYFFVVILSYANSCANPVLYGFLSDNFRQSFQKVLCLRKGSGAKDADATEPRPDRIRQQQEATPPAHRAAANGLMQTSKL
# ASSAY_TEXT: 125I-Tyr11-SRIF-14 displacement
*1 amine or outer side, *2 acyl side, *3 side chain or, on linkers, in order; H or OH if unused. Bridges are numbered along the chain shown (N, C = ends). Where no end group is shown, it is not given here. [ ]: non-standard residue; d: D form. The star is where a group is joined. DOTA = O=C(O)CN1CCN(CC(=O)O)CCN(CC(=O)*)CCN(CC(=O)O)CC1; N(2-mercaptoethyl)Gly = O=C(CN(CCS[*:3])[*:1])[*:2]; Glutaryl = O=C(CCCC(=O)[*:2])[*:1]; 4Amb = NCc1ccc(C(=O)O)cc1

{"BINDER": "{DOTA}-A[dF]RCF[dW]KTF[N(2-mercaptoethyl)Gly]-NH2 (disulfide 4-10; SMILES C[C@H](NC(=O)CN1CCN(CC(=O)O)CCN(CC(=O)O)CCN(CC(=O)O)CC1)C(=O)N[C@H](Cc1ccccc1)C(=O)N[C@@H](CCCNC(=N)N)C(=O)N[C@H]1CSSCCN(CC(N)=O)C(=O)[C@H](Cc2ccccc2)NC(=O)[C@H]([C@@H](C)O)NC(=O)[C@H](CCCCN)NC(=O)[C@@H](Cc2c[nH]c3ccccc23)NC(=O)[C@H](Cc2ccccc2)NC1=O) [SEQ ID NO: 12]", "% displacement at 10 nM / %": 13}
{"BINDER": "{Niraparib-Glutaryl}-[dF]RCF[dW]KTF[N(2-mercaptoethyl)Gly]-NH2 (disulfide 3-9) [SEQ ID NO: 28]", "% displacement at 10 nM / %": 0}
{"BINDER": "K[dF]RCF[dW]KTF[N(2-mercaptoethyl)Gly]-NH2 (disulfide 4-10; not fully specified (residue 1, N-terminus); printed as (DOTA)2-Lys1-D-Phe2-Arg3-Cys4-Phe5-D-Trp6-Lys7-Thr8-Phe9-NTEG10-NH2 (cyclo 3-9); also: (DOTA)2 on Lys1, sites not given here) [SEQ ID NO: 16]", "% displacement at 10 nM / %": 3}
{"BINDER": "{DOTA-4Amb}-[dF]RCF[dW]KTF[N(2-mercaptoethyl)Gly]-NH2 (disulfide 3-9) [SEQ ID NO: 18]", "% displacement at 10 nM / %": 0}
